Cited source for all entries: PubChem BioAssay (NCI)

For each record, write down the corresponding growth inhibition.
- Procedure Text: NCI Yeast Anticancer Drug Screen. Data for the mlh1 rad18 strain (AID 175)
- Condition Details: S. cerevisiae mlh1 rad18 strain growth inhibition; at 5.0 µM (retest, dose inferred, filed as 0.5); hits give high values
This is part of a sample that, as a whole, favours compounds with a hit. Of some 79,000 tested, about 15% had one in any assay.
Give bare numbers, in %.

Example compounds with recorded growth inhibition:
# Compound, Units Label, growth inhibition
data = [
    ("O=C1C=CC(=O)N1c1ccc(O)cc1", "%", 11),
    ("CN(C)c1ccc(/C=C/c2cc[n+](C)c(/C=C/c3ccc(N(C)C)cc3)c2)cc1", "%", 100),
    ("CC1CC(C)(C)OB(OC(C)CC(C)(C)OB2OC(C)CC(C)(C)O2)O1 (configuration not stated)", "%", 0),
    ("C=C1C(=O)C2=CC1CCC(=O)C1(C)CCC(OC(C)=O)C(C)(C)C1CC2O (configuration not stated)", "%", 15),
    ("O=[N+]([O-])/C=C/c1cccs1", "%", 4),
    ("CC(C)(C)C(=O)CC(c1ccccc1)c1ccccc1", "%", -13),
]

Next compound, please.
# query: growth inhibition of entry CCOC(=O)C1=NN(c2ccccc2)C(=O)/C1=C\N1C(=O)/C(=C/c2cccc(O)c2)SC1=S
0
